B1: BRF1 (parent)
chain: CTACGSVLEDNIIVSEVQFVESSG

Variants of: B1
Test: protein stability index of a GFP-peptide fusion (GPS, HEK-293T) (PSI 1-6); higher = more stable;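 also: lentivirally expressed fusions sorted by FACS into six bins by GFP to DsRed ratio, PSI derived from sequencing read proportions per bin multiplied by bin number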
Details: c terminus: a fixed tail appended
// reported protein stability index for each item listed

>  <mutation-spec>
E16R

>  <protein stability index>
3.09

$$$$
>  <mutation-spec>
S6L

>  <protein stability index>
1.39

$$$$
>  <mutation-spec>
I13G

>  <protein stability index>
3.61

$$$$
>  <mutation-spec>
S22R

>  <protein stability index>
2.18

$$$$
>  <mutation-spec>
V20C

>  <protein stability index>
2.21

$$$$
>  <mutation-spec>
S23Q

>  <protein stability index>
3.55

$$$$
>  <mutation-spec>
G5R

>  <protein stability index>
2.4

$$$$
>  <mutation-spec>
V14I

>  <protein stability index>
2.68

$$$$
>  <mutation-spec>
I12T

>  <protein stability index>
3.88

$$$$
>  <mutation-spec>
Q18Y

>  <protein stability index>
1.47

$$$$
>  <mutation-spec>
I13C

>  <protein stability index>
4.75

$$$$
>  <mutation-spec>
S15E

>  <protein stability index>
3.74

$$$$
>  <mutation-spec>
C1M

>  <protein stability index>
3.6

$$$$
>  <mutation-spec>
E9L

>  <protein stability index>
2.24

$$$$
>  <mutation-spec>
C4A

>  <protein stability index>
3.49

$$$$
>  <mutation-spec>
V20L

>  <protein stability index>
3.97

$$$$
